Below is a list of entries, each paired with its recorded Maximum mean fluorescence intensity value.
# assay-target: T1, monkey CD19 on HEK293T-monkey CD19 cells (monkey)
# T1 construct: whole, on cells
# experiment-notes: FACS on HEK293T-monkey CD19 cells
# Protocol: After the digestion was terminated, the cells were washed 2 times with a PBS buffer; and for suspension cell Raji, the supernatant of the medium was discarded by directly centrifugation, and the cell pellet was washed 2 times with PBS. […] Data analysis was performed by software (FlowJo) to obtain the mean fluorescence intensity (MFI) of the cells. […]
Could you keep your reply to the number by itself?

F4.125.12 (antibody, human IgG1, V domains shown, human-murine chimeric antibody, human IgG1) VH: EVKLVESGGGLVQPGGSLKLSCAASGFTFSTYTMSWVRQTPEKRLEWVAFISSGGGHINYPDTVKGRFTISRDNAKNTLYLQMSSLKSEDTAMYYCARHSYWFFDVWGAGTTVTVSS VL: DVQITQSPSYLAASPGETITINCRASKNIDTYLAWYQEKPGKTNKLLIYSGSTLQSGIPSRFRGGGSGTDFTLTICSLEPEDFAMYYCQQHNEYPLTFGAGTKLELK = 4080
F3.114.12 (antibody, human IgG1, V domains shown, human-murine chimeric antibody, human IgG1) VH: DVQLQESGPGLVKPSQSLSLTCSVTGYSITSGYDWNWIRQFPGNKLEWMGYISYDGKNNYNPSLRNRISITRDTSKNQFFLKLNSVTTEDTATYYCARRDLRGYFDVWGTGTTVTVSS VL: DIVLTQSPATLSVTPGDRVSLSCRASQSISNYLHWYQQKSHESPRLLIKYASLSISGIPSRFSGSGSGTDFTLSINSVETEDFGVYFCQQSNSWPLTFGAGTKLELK = 210000
F3.113.16 (antibody, human IgG1, V domains shown, human-murine chimeric antibody, human IgG1) VH: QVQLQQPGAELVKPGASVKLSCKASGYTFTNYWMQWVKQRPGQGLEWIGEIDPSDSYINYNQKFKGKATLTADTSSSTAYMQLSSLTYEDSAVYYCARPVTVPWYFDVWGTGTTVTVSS VL: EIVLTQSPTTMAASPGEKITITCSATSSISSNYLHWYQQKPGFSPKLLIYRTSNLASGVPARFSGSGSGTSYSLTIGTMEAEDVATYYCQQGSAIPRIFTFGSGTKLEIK = 176
F4.15.9 (antibody, human IgG1, V domains shown, human-murine chimeric antibody, human IgG1) VH: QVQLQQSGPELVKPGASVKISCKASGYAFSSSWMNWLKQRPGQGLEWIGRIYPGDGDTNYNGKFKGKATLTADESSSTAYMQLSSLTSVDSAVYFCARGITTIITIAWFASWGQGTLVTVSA VL: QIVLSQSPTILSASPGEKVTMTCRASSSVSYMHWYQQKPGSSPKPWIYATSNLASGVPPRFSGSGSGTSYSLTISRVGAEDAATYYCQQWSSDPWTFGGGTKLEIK = 14800
F4.22.6 (antibody, human IgG1, V domains shown, human-murine chimeric antibody, human IgG1) VH: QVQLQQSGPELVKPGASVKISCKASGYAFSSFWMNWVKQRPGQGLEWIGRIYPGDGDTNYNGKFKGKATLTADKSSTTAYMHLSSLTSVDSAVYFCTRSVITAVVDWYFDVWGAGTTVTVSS VL: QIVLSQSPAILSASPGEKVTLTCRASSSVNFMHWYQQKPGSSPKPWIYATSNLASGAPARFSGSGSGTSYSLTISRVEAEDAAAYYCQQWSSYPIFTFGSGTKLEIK = 7380
F6.2.9 (antibody, human IgG1, V domains shown, human-murine chimeric antibody, human IgG1) VH: QVQLQQSGAELVKPGASVKISCKASGYAFSSYWMNWVKQRPGKGLEWIGQIYPGDGDTNYNGKFKGKATLTADKSSSTGYMQLSSLTSEDSAVYFCARSRITSVVDWYFDVWGTGTTVTVSS VL: QIVLSQSPAILSASPGEKVTMTCRASSSVSYMHWYQQKPGSSPKPWIYATSNLASGVPARFSGSGSGTSYSLTISRVEAEDAATYYCQQWSSNPPTFGAGTKLELK = 2130
F4.21.2 (antibody, human IgG1, V domains shown, human-murine chimeric antibody, human IgG1) VH: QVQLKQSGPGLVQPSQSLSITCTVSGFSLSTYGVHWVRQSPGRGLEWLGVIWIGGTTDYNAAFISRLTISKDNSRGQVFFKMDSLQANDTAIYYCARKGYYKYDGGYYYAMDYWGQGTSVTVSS VL: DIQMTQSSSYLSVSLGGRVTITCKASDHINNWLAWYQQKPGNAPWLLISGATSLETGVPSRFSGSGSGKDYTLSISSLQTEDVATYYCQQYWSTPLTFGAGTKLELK = 39200
F4.4.6 (antibody, human IgG1, V domains shown, human-murine chimeric antibody, human IgG1) VH: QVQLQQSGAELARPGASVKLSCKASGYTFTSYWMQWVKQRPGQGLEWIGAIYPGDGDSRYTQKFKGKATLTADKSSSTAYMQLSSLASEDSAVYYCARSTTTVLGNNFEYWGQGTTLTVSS VL: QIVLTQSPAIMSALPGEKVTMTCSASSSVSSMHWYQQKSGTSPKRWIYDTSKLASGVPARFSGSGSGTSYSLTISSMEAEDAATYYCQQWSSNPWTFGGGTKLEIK = 662

Check the records and state Maximum mean fluorescence intensity for F4.37.6 (antibody, human IgG1, V domains shown, human-murine chimeric antibody, human IgG1) VH: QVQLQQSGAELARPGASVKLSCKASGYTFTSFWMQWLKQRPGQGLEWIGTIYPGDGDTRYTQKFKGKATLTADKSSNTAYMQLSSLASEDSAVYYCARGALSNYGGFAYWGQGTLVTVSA VL: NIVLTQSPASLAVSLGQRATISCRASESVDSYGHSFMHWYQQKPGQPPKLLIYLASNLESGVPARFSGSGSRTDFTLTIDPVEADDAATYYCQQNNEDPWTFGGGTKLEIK
58

Check the records and state Maximum mean fluorescence intensity for F3.83.9 (antibody, human IgG1, V domains shown, human-murine chimeric antibody, human IgG1) VH: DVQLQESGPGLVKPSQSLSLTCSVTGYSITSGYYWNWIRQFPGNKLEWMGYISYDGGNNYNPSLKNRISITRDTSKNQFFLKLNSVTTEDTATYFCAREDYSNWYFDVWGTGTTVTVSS VL: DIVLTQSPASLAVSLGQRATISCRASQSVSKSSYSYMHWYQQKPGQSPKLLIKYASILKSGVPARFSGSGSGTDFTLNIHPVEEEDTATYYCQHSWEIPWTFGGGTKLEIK
198000
